Data origin: patent US20090209554A1

Biological target: transketolase (TK) in colon carcinoma HCT116 cells (Homo sapiens, UniProt P29401)
Construct: endogenous in cells
Sequence (P29401 whole entry): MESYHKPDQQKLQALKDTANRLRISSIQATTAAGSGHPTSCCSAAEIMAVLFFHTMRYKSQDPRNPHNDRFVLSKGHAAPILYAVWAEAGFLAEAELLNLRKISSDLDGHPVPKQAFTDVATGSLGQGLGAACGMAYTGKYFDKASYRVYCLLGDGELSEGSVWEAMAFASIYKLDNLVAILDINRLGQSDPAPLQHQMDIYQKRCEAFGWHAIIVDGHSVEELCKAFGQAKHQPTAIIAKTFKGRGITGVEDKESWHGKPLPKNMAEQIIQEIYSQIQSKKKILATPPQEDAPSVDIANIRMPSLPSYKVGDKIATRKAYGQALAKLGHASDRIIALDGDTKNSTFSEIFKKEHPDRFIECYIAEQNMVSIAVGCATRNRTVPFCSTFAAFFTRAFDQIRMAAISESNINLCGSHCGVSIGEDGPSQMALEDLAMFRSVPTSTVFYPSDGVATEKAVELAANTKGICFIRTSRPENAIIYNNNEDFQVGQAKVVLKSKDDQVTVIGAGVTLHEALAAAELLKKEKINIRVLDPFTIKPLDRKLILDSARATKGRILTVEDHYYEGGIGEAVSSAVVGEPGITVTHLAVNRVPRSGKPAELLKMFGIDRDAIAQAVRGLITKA
Test: Cellular transketolase inhibition assay in HCT116
Conditions: colon carcinoma HCT116, thiamine-free DMEM, 48 h after compound treatment, TK activity in lysate
metric-name: IC50 (µM)
Give your result in µM as a bare value.

Worked cases, answers included:
[[record]]
compound = "Cc1cc(C)c(C[n+]2csc(CCO)c2)c(N)n1"
assayed_target = "transketolase (TK) in colon carcinoma HCT116 cells (Homo sapiens, UniProt P29401)"
metric_name = "IC50"
value_reported = 12.5

[[record]]
compound = "Cc1ccc(C[n+]2csc(C(O)CO)c2C)c(N)n1 (stereo not shown)"
assayed_target = "transketolase (TK) in colon carcinoma HCT116 cells (Homo sapiens, UniProt P29401)"
metric_name = "IC50"
value_reported = 0.269

[[record]]
compound = "Cc1ccc(C[n+]2c(C(C)O)sc(CCO)c2C)c(N)n1 (stereo not shown)"
assayed_target = "transketolase (TK) in colon carcinoma HCT116 cells (Homo sapiens, UniProt P29401)"
metric_name = "IC50"
value_reported = 0.034

[[record]]
compound = "Cc1c(CCO)sc[n+]1Cc1cccnc1N"
assayed_target = "transketolase (TK) in colon carcinoma HCT116 cells (Homo sapiens, UniProt P29401)"
metric_name = "IC50"
value_reported = 0.111

[[record]]
compound = "Cc1ccc(C[n+]2csc(CCO)c2CO)c(N)n1"
assayed_target = "transketolase (TK) in colon carcinoma HCT116 cells (Homo sapiens, UniProt P29401)"
metric_name = "IC50"
value_reported = 0.236


Q. Provide IC50, tested on transketolase (TK) in colon carcinoma HCT116 cells (Homo sapiens, UniProt P29401), for Cc1c(CCO)sc[n+]1Cc1cncc(C#N)c1 .
A. 119

Q. Give transketolase (TK) in colon carcinoma HCT116 cells (Homo sapiens, UniProt P29401) IC50 for the following compound: Cc1ccc(C[n+]2csc(CCO)c2)c(N)n1
A. 9.54

Q. Name the recorded IC50 of Cc1ccc(C[n+]2cc(CCO)sc2C)c(N)n1 , assay system transketolase (TK) in colon carcinoma HCT116 cells (Homo sapiens, UniProt P29401).
A. 0.489
